assay: protein stability index of a GFP-peptide fusion (yeast GPS) (PSI 1-4); higher = more stable; sorted into four equal gates, so the index is relative within each strain; conditions: ubr1∆
Quantity kind: protein stability index
Lab note: jot the number down without any unit.

Solved cases below.
# Seq text, protein stability index
measured = [
    ("VLKACGILSDLEIMQLV [RET1]", 2.56),
    ("NGRLNKCGVISPRFNVK [RPS22A]", 3.22),
]

Data request, read-out protein stability index, for LTKTTVNISAVDNTTEQ [YCG1] 3.24

Data request, read-out protein stability index, for NSASNNGNLTSNQLISN [SWI1] 2.75

Data request, read-out protein stability index, for QLIGSNIELHSLYTSRE [PUP1] 2.91

Data request, read-out protein stability index, for SVAKIRFPETMDETQTR [RPO21] 3.59

Data request, read-out protein stability index, for DKIPLNYAMTRNILHNT [SRB5] 1.93

Data request, read-out protein stability index, for HRTIVIRRAYLHYIPKY [RPS11A] 1.74

---

assay: protein stability index of a GFP-peptide fusion (yeast GPS) (PSI 1-4); higher = more stable; sorted into four equal gates, so the index is relative within each strain; details: doa10∆
Returns one of Yes or No; Yes when protein stability index is >= 2.

Item SNESQNGKDSEIMYTGV [SMC3] with protein stability index of 2 or above? Yes

Item TTTKIIDSTDHIRKASS [LRP1] with protein stability index of 2 or above? Yes

Item ASKSKKKFNMGKEFEAR [RPC53] with protein stability index of 2 or above? Yes

Item DDLIHFTLKQWNRLTIS [COR1] with protein stability index of 2 or above? No

Item ILNSHFDALRSLDDNST [YJL041W/NSP1] with protein stability index of 2 or above? Yes

Item VSALQMLKQHLFKYQGH [PUP1] with protein stability index of 2 or above? Yes

---

test: protein stability index of a GFP-peptide fusion (yeast GPS) (PSI 1-4); higher = more stable; sorted into four equal gates, so the index is relative within each strain; conditions: pdr5∆
Would you mind sorting the entries by protein stability index according to these classes? category 1 = under 2, category 2 = from 2 up to 3, category 3 = 3 and over

# Seq text, Group
records = [
    ("VNGPNVHPGANYLLKRN [RPO31]", "category 3"),
    ("EEQEKINSAPDFTQEDE [ISW2]", "category 3"),
    ("APYRKQIISNAHNKPSL [YAR002W/NUP60]", "category 2"),
    ("KKYLKKNQLRDWIRFVS [RPL22A]", "category 1"),
]

Hello team, could you let me know which band the following sequence falls into: SLLERHIPRLIPKQLLD [YJL039C/NUP192] category 1

Hello team, could you let me know which band the following sequence falls into: PNPTPSMINSVSPTNVM [PGD1] category 2

Hello team, could you let me know which band the following sequence falls into: RFTKFSDTLKEFKIEQN [YDL116W/NUP84] category 1

Hello team, could you let me know which band the following sequence falls into: HQGSGGSVMSASVEIVF [SMC3] category 2

Hello team, could you let me know which band the following sequence falls into: ISPKIWCAGAGTAADTE [PUP1] category 2

Hello team, could you let me know which band the following sequence falls into: QIAKFVVGLGERVSPTD [RPT1] category 1

---

assay: protein stability index of a GFP-peptide fusion (yeast GPS) (PSI 1-4); higher = more stable; sorted into four equal gates, so the index is relative within each strain; conditions: san1∆
Quantity kind: protein stability index
Lab note: jot the number down without any unit.

Solved cases below.
# Seq text, protein stability index
data = [
    ("PPLTYKNDTKILVLALE [PRP8]", 2.52),
    ("LLNHGERAELETDEYIS [RPN1]", 3.08),
    ("RCKIYFFYLRISKKLQF [PCI8]", 1.19),
    ("ARLDGHDFLFNTIIRDG [RPN14]", 3.32),
    ("SSLNGTNAKIPQFDSTQ [SSN3]", 2.98),
    ("TSGKVELPKKLLNLPPF [SRB8]", 2.67),
    ("EWRKSAIANTLLYLRLK [PRP8]", 1.41),
    ("ALTDFERFQVMVLRKQK [RPL14A]", 1.62),
    ("QDLNQRFQDPYVAIVVD [RRI1]", 2.29),
    ("LEEFEFKHGPMSLINDA [SMD2]", 3.14),
]

Could you now consider this next sequence?
Data request, read-out protein stability index, for SVTEIPLKLSGEGPFTV [YMR129W/POM152] 2.78

---

assay: protein stability index of a GFP-peptide fusion (yeast GPS) (PSI 1-4); higher = more stable; sorted into four equal gates, so the index is relative within each strain; conditions: pdr5∆
Listing: protein stability index of selected sequences
Lab note: jot the number down without any unit.

Solved cases below.
# Seq text, Quantity kind, Readout value
rows = [
    ("DAAAEEEKEEEAAEESD [RPP1B]", "protein stability index", 3.25),
    ("EFTSKIGFTIKEYENHS [SMC1]", "protein stability index", 3.04),
    ("CIIFMDEVDAIGGRRFS [RPT4]", "protein stability index", 2.13),
]

Data request, read-out protein stability index, for STSSGKVSYAVKKPQKS [SNM1] 2.76

Data request, read-out protein stability index, for RISEKSVRKFLEIALFK [RPO31] 1.15

Data request, read-out protein stability index, for QRDFRKHGAVHLSTYLK [RPL21A] 2.41

---

assay: protein stability index of a GFP-peptide fusion (yeast GPS) (PSI 1-4); higher = more stable; sorted into four equal gates, so the index is relative within each strain; details: doa10∆
Listing: protein stability index of selected sequences

Solved cases below.
# Seq text, Quantity kind, Readout value
rows = [
    ("INVDNDPFFAQSEDLSH [YML103C/NUP188]", "protein stability index", 3.15),
    ("MAKTLKDLDGWQVIITD [SIR3]", "protein stability index", 1.65),
    ("TSKSFSKLLYDDVTCDK [SIN4]", "protein stability index", 3.01),
    ("IEWCSRCNDNLMRSCFY [YJL039C/NUP192]", "protein stability index", 3.17),
    ("LKLENLHVVSKSSIEKD [SIN4]", "protein stability index", 3.13),
]

Could you now consider this next sequence?
Data request, read-out protein stability index, for TNLSGGEKTLSSLALVF [SMC4] 3.34

---

Listing: protein stability index of selected sequences
assay: protein stability index of a GFP-peptide fusion (yeast GPS) (PSI 1-4); higher = more stable; sorted into four equal gates, so the index is relative within each strain; conditions: san1∆

# Seq text, protein stability index
data = [
    ("SAFACKTDEVIILGTNL [BRR2]", 2.94),
    ("KFFTQSNLEKLPKYKEK [MED7]", 2.82),
    ("MVLRNVMEYDVKFYEIF [SRB8]", 1.62),
    ("PAELEGLLDLERVIVVT [FAS2]", 1.78),
    ("KSLDKKIAKRRQVYKPV [POP3]", 2.54),
    ("EEVMRIALMGQDNKKIY [ESC2]", 2.2),
    ("IELTSYESIATYASVTG [RPN7]", 1.11),
    ("DEGHVLKLENLHVVSKS [SIN4]", 2.73),
]

Data request, read-out protein stability index, for INESAENFSNGISLVME [MED1] 3.07

Data request, read-out protein stability index, for NKVQIMIATNVAARGLD [PRP28] 1.43

Data request, read-out protein stability index, for PQNTTATTGGLFGSKPQ [YGR119C/NUP57] 3.32

Data request, read-out protein stability index, for QVPSSLIVRAKNHTHNL [RRP4] 2.67

Data request, read-out protein stability index, for IPSQRGTSTTHGSISPQ [SIR3] 2.37

Data request, read-out protein stability index, for DQLLTDLIETSFTCFAQ [NUT1] 1.88

Data request, read-out protein stability index, for LKLNTSLPSKLTKYKEM [SRP68] 1.58

---

assay: protein stability index of a GFP-peptide fusion (yeast GPS) (PSI 1-4); higher = more stable; sorted into four equal gates, so the index is relative within each strain; conditions: pdr5∆
Quantity kind: protein stability index
Lab note: jot the number down without any unit.

Solved cases below.
# Seq text, protein stability index
measured = [
    ("VMRNEIRITSLQGDLTF [SIR4]", 2.35),
    ("NSKDHKKITLQLLDTSN [SIN4]", 3.39),
    ("ARKETYSSYIYKVLKQT [HTB1]", 2.43),
    ("LLKEEKIIELMNKIFTI [YML103C/NUP188]", 1.57),
]

Data request, read-out protein stability index, for YQRKRLVTQHKAKYNTP [RPL5] 2.8

Data request, read-out protein stability index, for VNDSVISAPSMEDEILS [BRN1] 2.29

Data request, read-out protein stability index, for VEEKPGDRGALARASGN [RPL2A] 3.23
